System: HCT116 (p53+/+)
experiment.notes: MTS anti-proliferative assay, HCT116 (p53+/+)
Assay type: cell-based, human
condition.parameters: 72 h incubation, mean ± SD
pIC50: −log10 of the molar value.
observation.type: pIC50

// worked examples, pIC50 included
INSERT INTO measurements (smiles_record, value_measured) VALUES
  ('Oc1cc(O)c(C=Cc2ccc3cccc(O)c3n2)c(O)c1', '< 4.60'),
  ('CCCCOc1ccc(C=Cc2ccc3ccccc3n2)cc1', '< 4.60');

Moving on to the next compound.
Which pIC50 value belongs to CC(=O)Oc1ccc(C=Cc2ccc3cccc(OC(C)=O)c3n2)c(OC(C)=O)c1 ?
< 4.60
